# SYSTEM_NAME: Gal(b1-3)GalNAc(a1-3)[Fuc(a1-2)]Gal(b1-4)Glc
# MEASUREMENT_NOTES: glycan array binding signal (z-score within array); higher = stronger binding
# CONDITION_PARAMETERS: glycan notation: IUPAC condensed, linker removed
The full list was thinned out, with the strongest signals kept by preference.
Assignment: determine reported glycan array binding signal (z-score) for the given binders.
Number, no unit, nothing else.

Q: What does the data say about its glycan array binding signal (z-score)? Entry: Epa6 (Candida glabrata), Q6DTM7_CANGB (protein) MGSSHHHHHHSSGLVPRGSHMKDDYSSSLSNNNLGWTDPTEFPLGCSPNVTTPKNGLSMELYSYDYLKSGSNPCWDAAYLDPNYPRTGYKSHRLLAKVENVAGNINFYYHAPMGCTSLFDTLPQAYNYRTPLTMTNFTMLLYGYFKPKVTGYHTFTISADDLLFVNFGAGNAFDCCKRESSADDFGNYQAYAVWGSQTAKDDLTVHLDAGLYYPIRIFFNNRDNDGALSLTLKTESDPNPVIDFSDYFYSFDDTKDGCPGLVSYDTS
Result: 4.95

Q: What does the data say about its glycan array binding signal (z-score)? Entry: Epa7 (Candida glabrata), Q6DTM6_CANGB (protein) MGSSHHHHHHSSGLVPRGSHMKDDYSSFLSNNNLGWTDPTEFPLGCSPNVTTPKNGLSMELYSYDLRKNGSYPCWDAAYLDPNYPRTGYKSHRLLAKVDGVTGNINFYYHATKGCTPEIDHLPASYNYPKPLTMTNFTMLLYGYFKPKVTGYHTFTISADDLLFVNFGAGNAFDCCKRESSADDFGNYQAYAVWGSQTAKDDLTVHLDAGLYYPIRIFFNNREYDAELSLTLKTESDSNPVIDFSDYFYSFDDTKDGCPGLVSYDTS
Result: 5.79

Q: What does the data say about its glycan array binding signal (z-score)? Entry: Epa9 (Candida glabrata), CAGL0A01386g (protein) MGSSHHHHHHSSGLVPRGSHMDITPFAHYPRPEGCSSPPNAVSVGLHMDLYNYPYLYVKNPRTGFTNDTDSDADGETDGDSAGGIEGRAGQCWNPEYQDPNFPRYGYKKYGSFGSSDHVNGKISWDHNEFKEGCKPIMARLPTAYNYPAKITFSNFTMVLSGYFKPKSTGLYKFEIHADDFILFNFGSKNAFECCNREESIDNFGPYVAYAMWPNEADQELEVYLFEDSYYPIRLFYNNRDYHSKFMVGFYPPNTEEITYDFDGYLYMLDDTGNECKDSIRYKTVCDD
Result: 1.58

Q: What does the data say about its glycan array binding signal (z-score)? Entry: CBP21 (Serratia marcescens), O83009 (protein) MNKTSRTLLSLGLLSAAMFGVSQQANAHGYVESPASRAYQCKLQLNTQCGSVQYEPQSVEGLKGFPQAGPADGHIASADKSTFFELDQQTPTRWNKLNLKTGPNSFTWKLTARHSTTSWRYFITKPNWDASQPLTRASFDLTPFCQFNDGGAIPAAQVTHQCNIPADRSGSHVILAVWDIADTANAFYQAIDVNLSK
Result: -0.45
